run.description: Pharmacokinetics assay in rats after intragastrical administration
Format: in vivo
test.conditions: both sexes, Sprague-Dawley (SD), rat, plasma, po, 2 mg/kg, read-out: Plasma concentration Cmax
Please go through the items and note down their Cmax.
Entry rule: numbers only, all in ng/mL.

*Q* Could you tell me which Cmax is on file for O=C(Nc1cn[nH]c(=O)c1)c1cc(Cl)c(C(F)(F)F)cc1Oc1ccc(F)cc1OC(F)(F)F ?
*A* 295

*Q* Could you tell me which Cmax is on file for Cc1cc(F)ccc1Oc1cc(C(F)(F)F)c(Br)cc1C(=O)Nc1cn[nH]c(=O)c1 ?
*A* 382

*Q* Could you tell me which Cmax is on file for [2H]C([2H])([2H])Oc1cc(F)ccc1Oc1cc(C(F)(F)F)c(Cl)cc1C(=O)Nc1cn[nH]c(=O)c1 ?
*A* 392

*Q* Could you tell me which Cmax is on file for Cc1cc(F)ccc1Oc1cc(C(F)(F)F)c(Cl)cc1C(=O)Nc1cn[nH]c(=O)c1 ?
*A* 399

*Q* Could you tell me which Cmax is on file for O=C(Nc1cn[nH]c(=O)c1)c1cc(Cl)c(C(F)(F)F)cc1Oc1ccc(F)cc1OC1CC1 ?
*A* 435

*Q* Could you tell me which Cmax is on file for O=C(Nc1cn[nH]c(=O)c1)c1cc(Cl)c(C(F)(F)F)cc1Oc1ccc(F)cc1C1CC1 ?
*A* 360

*Q* Could you tell me which Cmax is on file for COc1cc(F)ccc1Oc1cc(C(F)(F)F)c(Cl)cc1C(=O)Nc1cn[nH]c(=O)c1 ?
*A* 218

====

run.description: Pharmacokinetics assay in rats after intragastrical administration
Type: in vivo
test.conditions: both sexes, Sprague-Dawley (SD), rat, plasma, po, 2 mg/kg, read-out: Residence time MRT
experimental.endpoint: MRT (h)
Entry rule: numbers only, all in h.

*Q* Could you tell me which MRT is on file for [2H]C([2H])([2H])Oc1cc(F)ccc1Oc1cc(C(F)(F)F)c(Cl)cc1C(=O)Nc1cn[nH]c(=O)c1 [Example 35] ?
*A* 10.6

*Q* Could you tell me which MRT is on file for Cc1cc(F)ccc1Oc1cc(C(F)(F)F)c(Br)cc1C(=O)Nc1cn[nH]c(=O)c1 [Example 33] ?
*A* 27.7

*Q* Could you tell me which MRT is on file for Cc1cc(F)ccc1Oc1cc(C(F)(F)F)c(Cl)cc1C(=O)Nc1cn[nH]c(=O)c1 [Example 2] ?
*A* 68.2

*Q* Could you tell me which MRT is on file for O=C(Nc1cn[nH]c(=O)c1)c1cc(Cl)c(C(F)(F)F)cc1Oc1ccc(F)cc1OC(F)(F)F [Example 15] ?
*A* 82.4

*Q* Could you tell me which MRT is on file for O=C(Nc1cn[nH]c(=O)c1)c1cc(Cl)c(C(F)(F)F)cc1Oc1ccc(F)cc1OC1CC1 [Example 12] ?
*A* 19.8

*Q* Could you tell me which MRT is on file for O=C(Nc1cn[nH]c(=O)c1)c1cc(Cl)c(C(F)(F)F)cc1Oc1ccc(F)cc1C1CC1 [Example 31] ?
*A* 48.3

====

run.description: Pharmacokinetics assay in rats after intragastrical administration
Format: in vivo
test.conditions: both sexes, Sprague-Dawley (SD), rat, plasma, po, 2 mg/kg, read-out: Half-life T½ (converted)
Description: Rats were used as test animals. The drug concentration in plasma at different time points was determined by LC/MS/MS method after intragastrical administration of the compounds of Example 2, Example 11, Example 12, Example 15, Example 31 and Example 33 to rats. The pharmacokinetic behavior of the compounds of the present disclosure was studied and evaluated in rats. […]
Lab note: compare half-life against 30 h. Equal or greater, write true (1). Smaller, write false (0).

*Q* Kindly determine if half-life recorded for Cc1cc(F)ccc1Oc1cc(C(F)(F)F)c(Br)cc1C(=O)Nc1cn[nH]c(=O)c1 is above or exactly 30 h.
*A* false (0)

*Q* Kindly determine if half-life recorded for Cc1cc(F)ccc1Oc1cc(C(F)(F)F)c(Cl)cc1C(=O)Nc1cn[nH]c(=O)c1 is above or exactly 30 h.
*A* true (1)

*Q* Kindly determine if half-life recorded for [2H]C([2H])([2H])Oc1cc(F)ccc1Oc1cc(C(F)(F)F)c(Cl)cc1C(=O)Nc1cn[nH]c(=O)c1 is above or exactly 30 h.
*A* false (0)

*Q* Kindly determine if half-life recorded for COc1cc(F)ccc1Oc1cc(C(F)(F)F)c(Cl)cc1C(=O)Nc1cn[nH]c(=O)c1 is above or exactly 30 h.
*A* false (0)

*Q* Kindly determine if half-life recorded for O=C(Nc1cn[nH]c(=O)c1)c1cc(Cl)c(C(F)(F)F)cc1Oc1ccc(F)cc1OC(F)(F)F is above or exactly 30 h.
*A* true (1)

*Q* Kindly determine if half-life recorded for O=C(Nc1cn[nH]c(=O)c1)c1cc(Cl)c(C(F)(F)F)cc1Oc1ccc(F)cc1OC1CC1 is above or exactly 30 h.
*A* false (0)

*Q* Kindly determine if half-life recorded for O=C(Nc1cn[nH]c(=O)c1)c1cc(Cl)c(C(F)(F)F)cc1Oc1ccc(F)cc1C1CC1 is above or exactly 30 h.
*A* true (1)

All values here come from patent US20220073471A1.
